target: Histamine H2 receptor (Cavia porcellus); test: Histamine H2 receptor antagonism in isolated guinea pig right atrium at concentration of 1*10e-6 g/mL of histamine hydrochloride; assay type: functional, tissue-based; conditions: Cardiac atrium
Would you mind labelling by inhibition? At or over 40% is 1, under is 0.

Example cases with answers are listed next.
- query_smiles: "COc1ccc(CC/N=C(\\N)Nc2nc(-c3ccc(CNC(C)=O)o3)cs2)cc1"
  assigned_class: 0
- query_smiles: "CC(=O)NCc1ccc(-c2csc(NC(=N)NCCc3ccco3)n2)o1"
  assigned_class: 1
- query_smiles: "COc1cccc(C/N=C(\\N)Nc2nc(-c3ccc(CNC(C)=O)o3)cs2)c1"
  assigned_class: 0
- query_smiles: "CCOc1ccccc1C/N=C(\\N)Nc1nc(-c2ccc(CNC(C)=O)o2)cs1"
  assigned_class: 1
- query_smiles: "COc1ccccc1CC/N=C(\\N)Nc1nc(-c2ccc(CNC(C)=O)o2)cs1"
  assigned_class: 1

Query: Please check the record COc1ccccc1C/N=C(\N)Nc1nc(-c2ccc(CNC(C)=O)o2)cs1 and state if its inhibition is at or above 40%.
Response: 0

Query: Assess whether reported inhibition for CC(=O)NCc1ccc(-c2csc(NC(=N)NCCc3ccccc3[N+](=O)[O-])n2)o1 sits at 40% or higher.
Response: 1

Query: Quick check, inhibition >= 40%? COc1ccccc1CC/N=C(\N)Nc1nc(-c2cc(C)c(CNC(C)=O)o2)cs1
Response: 0
